Provenance of the data: ChEMBL document CHEMBL1201861

System: RPMI-7951
Experiment: cells
Format: functional, cell-based
Conditions: Homo sapiens
Description: SANGER: Inhibition of human RPMI-7951 cell growth in a cell viability assay.
Could you please report measured IC50 for the items listed next?
Give the quantity in nM, number only.

Query: Request - read-out IC50 | tested on RPMI-7951 | compound CN(NC(=O)CC(=O)NN(C)C(=S)c1ccccc1)C(=S)c1ccccc1 [ELESCLOMOL]
Reply: 36.6

Query: Request - read-out IC50 | tested on RPMI-7951 | compound NC(=O)Nc1cc(-c2cccc(F)c2)sc1C(=O)N[C@H]1CCCNC1 [AZD-7762]
Reply: 231

Query: Request - read-out IC50 | tested on RPMI-7951 | compound CCCCCCCCCCCC1=C(O)C(=O)C=C(O)C1=O [EMBELIN]
Reply: 25600

====

System: IA-LM;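 also: cell viability assay measuring growth inhibition of human IA-LM cells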
Test: cells
Type: functional, cell-based
Conditions: Homo sapiens
Description: SANGER: Inhibition of human IA-LM cell growth in a cell viability assay.
Could you please report measured IC50 for the items listed next?
Give the quantity in nM, number only.

Query: Reported IC50, molecule CN(NC(=O)CC(=O)NN(C)C(=S)c1ccccc1)C(=S)c1ccccc1 : ____
Reply: 84.4

Query: Reported IC50, molecule O=C(NCCCNc1nc(Nc2cccc(NC(=O)N3CCCC3)c2)ncc1I)c1cccs1 : ____
Reply: 4850

Query: Reported IC50, molecule COC(=O)[C@H](CCSC)NC(=O)c1ccc(NC[C@@H](N)CS)cc1-c1ccccc1 : ____
Reply: 955

Query: Reported IC50, molecule COc1ccc(-c2cc3nccn3c(Nc3ncccc3C(N)=O)n2)cc1OC : ____
Reply: 2710

====

Could you please report measured pIC50 for the items listed next?
Tested on: NCI-H2126;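 also: growth inhibition of the cancer cell line, determined with a cell viability readout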
Test: cells
Type: functional, cell-based, Homo sapiens
Details: Homo sapiens, NCI-H2126
Description: SANGER: Inhibition of human NCI-H2126 cell growth in a cell viability assay.
pIC50: −log10 of the molar value.

Query: Reported pIC50, compound COc1ccc(N(C(=O)Oc2c(C)cccc2C)c2ccnc(Nc3ccc(N4CCN(C)CC4)cc3)n2)c(OC)c1 : ____
Reply: < 5.29

Query: Reported pIC50, compound C=CC(=O)N1CCCC(Nc2nc(Nc3ccc(N(C)C(=O)CC)cc3)nc3[nH]cnc23)C1 (centres undefined) : ____
Reply: < 4.99

Query: Reported pIC50, compound NC(=O)c1ccc(N(C(N)=O)c2c(F)cccc2F)nc1-c1ccc(F)cc1F : ____
Reply: < 5.70

Query: Reported pIC50, compound CN(C)CCOc1ccc(-c2nc(-c3ccncc3)c(-c3ccc4c(c3)CC/C4=N\O)[nH]2)cc1 : ____
Reply: < 5.30

====

System: L-540;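 also: growth inhibition of the human L-540 cell line, read out with a viability assay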
Assay: cells
Assay type: functional, cell-based, Homo sapiens
Details: l-540
Description: SANGER: Inhibition of human L-540 cell growth in a cell viability assay.
Where a SMILES comes first, the peptide text is derived from it. The star is where a group is joined. Cbz = O=C(OCc1ccccc1)*
Observed Property: IC50

Query: Reported IC50, molecule CC(C)C[C@@H](C=O)NC(=O)[C@H](CC(C)C)NC(=O)[C@H](CC(C)C)NC(=O)OCc1ccccc1 [MG-132] (Cbz-Leu-Leu-Leu-aldehyde) : ____
Reply: > 1000 nM

====

Could you please report measured IC50 for the items listed next?
Tested on: OCI-AML2;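 also: growth inhibition of OCI-AML2 cells, read out with a cell viability assay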
Assay: cells
Type: functional, cell-based, Homo sapiens
Details: Homo sapiens, OCI-AML2
Description: SANGER: Inhibition of human OCI-AML2 cell growth in a cell viability assay.
Give the quantity in nM, number only.

Query: Reported IC50, compound C/C(=C\c1csc(C)n1)[C@@H]1C[C@@H]2O[C@]2(C)CCC[C@H](C)[C@H](O)[C@@H](C)C(=O)C(C)(C)[C@@H](O)CC(=O)O1 : ____
Reply: 3.07

Query: Reported IC50, compound COc1cc(N2CCC(N3CCN(C)CC3)CC2)ccc1Nc1ncc(Cl)c(Nc2ccccc2S(=O)(=O)C(C)C)n1 : ____
Reply: 483

Query: Reported IC50, compound NC(=O)Nc1cc(-c2cccc(F)c2)sc1C(=O)N[C@H]1CCCNC1 : ____
Reply: 1270

====

System: TE-1
Test: cells
Format: functional, cell-based, Homo sapiens
Conditions: Homo sapiens, TE-1
Description: SANGER: Inhibition of human TE-1 cell growth in a cell viability assay.
pIC50: −log10 of the molar value.
Could you please report measured pIC50 for the items listed next?

Query: Request - read-out pIC50 | tested on TE-1 | compound OC[C@H](Cc1ccccc1)Nc1nc(Oc2ccc3c(c2)CCC3)nc2c1ncn2Cc1ccc(-c2ccccc2)cc1
Reply: < 4.99

Query: Request - read-out pIC50 | tested on TE-1 | compound CS(=O)(=O)N1CCN(Cc2cc3nc(-c4cccc5[nH]ncc45)nc(N4CCOCC4)c3s2)CC1 [PICTILISIB]
Reply: < 5.40

Query: Request - read-out pIC50 | tested on TE-1 | compound COc1ccc(-c2cc3nccn3c(Nc3ncccc3C(N)=O)n2)cc1OC
Reply: < 5.10

Query: Request - read-out pIC50 | tested on TE-1 | compound COc1cc(N2CCC(N3CCN(C)CC3)CC2)ccc1Nc1ncc(Cl)c(Nc2ccccc2S(=O)(=O)C(C)C)n1 [TAE-684]
Reply: 6.16

====

System: KYSE-510;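 also: cell viability readout used to measure how strongly growth of the cell line is suppressed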
Assay: cells
Assay type: functional, cell-based
Conditions: Homo sapiens
Description: SANGER: Inhibition of human KYSE-510 cell growth in a cell viability assay.
Could you please report measured IC50 for the items listed next?

Query: Reported IC50, compound O=C(NCCCNc1nc(Nc2cccc(NC(=O)N3CCCC3)c2)ncc1I)c1cccs1 : ____
Reply: 4.96 µM

Query: Reported IC50, compound Cc1ccc(C(=O)Nc2ccc(CN3CCN(C)CC3)c(C(F)(F)F)c2)cc1C#Cc1cnc2cccnn12 : ____
Reply: > 0.512 µM

====

Test system: SHP77;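 also: growth inhibition of human SHP-77 cells measured by a cell viability assay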
Test: cells
Format: functional, cell-based, Homo sapiens, SHP-77
Conditions: shp-77
Description: SANGER: Inhibition of human SHP-77 cell growth in a cell viability assay.
pIC50: −log10 of the molar value. Where a SMILES comes first, the peptide text is derived from it. The star is where a group is joined. Cbz = O=C(OCc1ccccc1)*
Observed Property: pIC50

Query: Reported pIC50, molecule CC(C)C[C@@H](C=O)NC(=O)[C@H](CC(C)C)NC(=O)[C@H](CC(C)C)NC(=O)OCc1ccccc1 [MG-132] (Cbz-Leu-Leu-Leu-aldehyde) : ____
Reply: < 6.00

====

Could you please report measured pIC50 for the items listed next?
System: KYSE-270;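 also: cell growth inhibition measured with a viability assay in the human KYSE-270 line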
Test: cells
Type: functional, cell-based
Conditions: Homo sapiens
Description: SANGER: Inhibition of human KYSE-270 cell growth in a cell viability assay.
Conceptually, pIC50 converts a concentration in mol/L into minus its log10.

Query: Reported pIC50, compound NC(=O)Nc1cc(-c2cccc(F)c2)sc1C(=O)N[C@H]1CCCNC1 : ____
Reply: 6.65

Query: Reported pIC50, compound COc1ccc(-c2cc3nccn3c(Nc3ncccc3C(N)=O)n2)cc1OC : ____
Reply: 5.84

====

Test system: AN3-CA
Assay: cells
Format: functional, cell-based
Settings: Homo sapiens
Description: SANGER: Inhibition of human AN3-CA cell growth in a cell viability assay.
Observed Property: log10 IC50 (log10 of the value in nM)
// do not treat as linear: log10 of IC50, unit nM

Query: Reported log10 IC50, compound Cc1ccc(C(=O)Nc2ccc(CN3CCN(C)CC3)c(C(F)(F)F)c2)cc1C#Cc1cnc2cccnn12 [PONATINIB] : ____
Reply: 1.27

Query: Reported log10 IC50, compound CS(=O)(=O)N1CCN(Cc2cc3nc(-c4cccc5[nH]ncc45)nc(N4CCOCC4)c3s2)CC1 [PICTILISIB] : ____
Reply: 2.53

Query: Reported log10 IC50, compound NC1(c2ccc(-c3nc4ccn5c(=O)[nH]nc5c4cc3-c3ccccc3)cc2)CCC1 [MK-2206] : ____
Reply: 3.56

Query: Reported log10 IC50, compound CN(NC(=O)CC(=O)NN(C)C(=S)c1ccccc1)C(=S)c1ccccc1 [ELESCLOMOL] : ____
Reply: 1.03

Query: Reported log10 IC50, compound CCCCCCCCCCCC1=C(O)C(=O)C=C(O)C1=O [EMBELIN] : ____
Reply: 3.80

====

Could you please report measured pIC50 for the items listed next?
Tested on: NH-12
Assay: cells
Assay type: functional, cell-based, Homo sapiens
Conditions: Homo sapiens, NH-12
Description: SANGER: Inhibition of human NH-12 cell growth in a cell viability assay.
pIC50: −log10 of the molar value.

Query: Reported pIC50, compound COc1ccc(-c2cc3nccn3c(Nc3ncccc3C(N)=O)n2)cc1OC : ____
Reply: 5.60

Query: Reported pIC50, compound OC[C@H](Cc1ccccc1)Nc1nc(Oc2ccc3c(c2)CCC3)nc2c1ncn2Cc1ccc(-c2ccccc2)cc1 : ____
Reply: < 4.99

Query: Reported pIC50, compound Cc1cc(N2CCOCC2)cc2[nH]c(-c3c(NC[C@@H](O)c4cccc(Cl)c4)cc[nH]c3=O)nc12 : ____
Reply: < 5.29

Query: Reported pIC50, compound Nc1ccccc1NC(=O)c1ccc(CNC(=O)OCc2cccnc2)cc1 [ENTINOSTAT] : ____
Reply: < 5.30

Query: Reported pIC50, compound C=CC(=O)N1CCCC(Nc2nc(Nc3ccc(N(C)C(=O)CC)cc3)nc3[nH]cnc23)C1 (stereo not drawn) : ____
Reply: < 4.99

Query: Reported pIC50, compound O=C(NCCCNc1nc(Nc2cccc(NC(=O)N3CCCC3)c2)ncc1I)c1cccs1 [BX-795] : ____
Reply: 5.55

Query: Reported pIC50, compound NC(=O)c1ccc(N(C(N)=O)c2c(F)cccc2F)nc1-c1ccc(F)cc1F [VX-702] : ____
Reply: < 5.70

Query: Reported pIC50, compound COC(=O)[C@H](CCSC)NC(=O)c1ccc(NC[C@@H](N)CS)cc1-c1ccccc1 : ____
Reply: < 5.99

Query: Reported pIC50, compound CS(=O)(=O)N1CCN(Cc2cc3nc(-c4cccc5[nH]ncc45)nc(N4CCOCC4)c3s2)CC1 [PICTILISIB] : ____
Reply: 5.69

Query: Reported pIC50, compound CN(C)CCOc1ccc(-c2nc(-c3ccncc3)c(-c3ccc4c(c3)CC/C4=N\O)[nH]2)cc1 [SB590885] : ____
Reply: < 5.30

Query: Reported pIC50, compound NC1(c2ccc(-c3nc4ccn5c(=O)[nH]nc5c4cc3-c3ccccc3)cc2)CCC1 [MK-2206] : ____
Reply: < 5.40

Query: Reported pIC50, compound C/C(=C\c1csc(C)n1)[C@@H]1C[C@@H]2O[C@]2(C)CCC[C@H](C)[C@H](O)[C@@H](C)C(=O)C(C)(C)[C@@H](O)CC(=O)O1 [PATUPILONE] : ____
Reply: 9.05

Query: Reported pIC50, compound COc1cc(N2CCC(N3CCN(C)CC3)CC2)ccc1Nc1ncc(Cl)c(Nc2ccccc2S(=O)(=O)C(C)C)n1 [TAE-684] : ____
Reply: < 5.70
